Test system: Escherichia coli TOP10;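 further: peptides expressed intracellularly from a pBAD plasmid library in pooled LB shake-flask culture, induced with 0.3% L-arabinose, DNA abundance read by NGS, three biological replicates, DESeq2 with apeglm shrinkage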
Test description: shrunken log2 fold change of peptide-encoding DNA abundance (4.5 h post-induction vs induction); higher = less antimicrobial activity (less host growth inhibition)
Protocol conditions: time post-induction: 4.5 h; library: site-saturation at positions 5, 18, 19, 20
// label = yes (1) if shrunken log2 fold change is not less than -0.01, otherwise no (0)

Check out these entries, answers already filled in.
Sequence	Test system	Group
RRIRNRPPRLPRPRPRPLAWPRP	Escherichia coli TOP10	yes (1)
RRIRSRPPRLPRPRPRPPYQPRP	Escherichia coli TOP10	yes (1)

Could you verify whether the entry RRIRYRPPRLPRPRPRPLDSPRP shows shrunken log2 fold change of no less than -0.01?
no (0)

Subsequent entry: RRIRTRPPRLPRPRPRPRSEPRP
yes (1)

Subsequent entry: RRIRSRPPRLPRPRPRPIGTPRP
no (0)

Subsequent entry: RRIRQRPPRLPRPRPRPCRVPRP
no (0)

Subsequent entry: RRIRLRPPRLPRPRPRPHCYPRP
yes (1)

Subsequent entry: RRIRQRPPRLPRPRPRPGERPRP
yes (1)

Subsequent entry: RRIRERPPRLPRPRPRPKQMPRP
no (0)

Subsequent entry: RRIRWRPPRLPRPRPRPTCQPRP
yes (1)

Subsequent entry: RRIRGRPPRLPRPRPRPSDLPRP
yes (1)

Subsequent entry: RRIRCRPPRLPRPRPRPWSFPRP
no (0)

Subsequent entry: RRIRRRPPRLPRPRPRPAVQPRP
yes (1)

src = the supplement of paper PMC9112550
